B1: Azoarcus group I ribozyme (parent)
chain: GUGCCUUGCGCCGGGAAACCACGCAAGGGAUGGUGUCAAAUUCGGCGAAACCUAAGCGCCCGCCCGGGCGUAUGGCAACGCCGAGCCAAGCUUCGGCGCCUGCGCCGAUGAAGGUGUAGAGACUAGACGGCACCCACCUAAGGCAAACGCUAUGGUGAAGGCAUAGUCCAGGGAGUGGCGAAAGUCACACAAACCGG

Variants of: B1
Assay: reverse-splicing fitness (ratio to wild type); higher = more active; in vitro selection; Mg2+ level not given
In this section, each of the variants is paired with its reported reverse-splicing fitness.

| mutantName | reverse-splicing fitness |
| --- | --- |
| C82A A111C A120G A145U C169U | 0.00891 |
| C82U A111C A120G A145G C169U U176G | 0.00411 |
| C82G A120C A145U C150U U176C | 0.0672 |
| C82G A111C A145G C169U | 0.0141 |
| C150U | 0.878 |
| C82U A111G A120G C169G U176A | 0.0186 |
| A111C A120G C150U C169A U176C | 0.0197 |
| C82U A111G C150U C169G U176C | 0.0162 |
| C82U A120C C150G C169A U176C | 0.00991 |
| C82A A120U C150A C169U | 0.00372 |
| C82G A111C A120U A145G C150G U176C | 0.009 |
